Data provenance is paper PMC12040169.

# assaySummary: in vitro
# conditionsUsed: human, hela cells, % viability
measuredProperty: viability at 28.5 h, 10 µM (%)
# unit: % | format: bare number

// viability at 28.5 h, 10 µM lookup, compound = Fc1ccc([C@@H]2CN(Cc3cccnc3)C[C@H]2c2cc[nH]n2)cc1 , result: 100

// viability at 28.5 h, 10 µM lookup, compound = CCCCCn1c(O)nnc1SCc1csc(CS(=O)(=O)c2ccc(Cl)cc2)n1 , result: 80.7

// viability at 28.5 h, 10 µM lookup, compound = COc1ccc(C(=O)Nc2ccc(N3CCNCC3)nc2)cc1 [CBK029434T] , result: 111

// viability at 28.5 h, 10 µM lookup, compound = CN(CCC#N)C(=O)c1cc2cc(Cl)ccc2[nH]1 , result: 98

// viability at 28.5 h, 10 µM lookup, compound = O=C1OC(c2ccco2)=N/C1=C/Nc1ccc(C(=O)O)cc1 , result: 104

// viability at 28.5 h, 10 µM lookup, compound = O=C1NCCC[C@@H]1NC(=O)[C@H]1CN(C(=O)c2ccccc2)CCN1C(=O)c1cccnc1 , result: 108

// viability at 28.5 h, 10 µM lookup, compound = Cc1cc(C)n(C2CCN(Cc3nc4ccccc4[nH]3)CC2)n1 , result: 103

// viability at 28.5 h, 10 µM lookup, compound = Cc1nn(CCS(C)(=O)=O)c(C)c1CN1CCOC(c2ccccc2)C1 (stereo not shown) , result: 80.4

// viability at 28.5 h, 10 µM lookup, compound = CCN1CCN(S(=O)(=O)c2ccc(Br)cc2)CC1 , result: 99.7

// viability at 28.5 h, 10 µM lookup, compound = CCOc1ccc(-n2c(SCc3nc(-c4ccccc4C)no3)nnc2-c2ccccc2)cc1 , result: 109

// viability at 28.5 h, 10 µM lookup, compound = Cc1ccc(/C=C/C(=O)N2CCC3(CC2)CC(=O)c2cc(Cl)ccc2O3)cc1 , result: 95.1

// viability at 28.5 h, 10 µM lookup, compound = O=C1NC[C@]2(CC[C@@H](C(=O)NC3CC3)CC2)Oc2ccc(Cl)cc21 , result: 94.2

// viability at 28.5 h, 10 µM lookup, compound = CC(C)c1ccc(/C=C/C(=O)NCc2ccc3occc3c2)cc1 , result: 93.3

// viability at 28.5 h, 10 µM lookup, compound = CN(C)CCNCc1cccc(OCc2ccccc2)c1 [CBK278216C] , result: 89.7

// viability at 28.5 h, 10 µM lookup, compound = CCC1(CC)OC(NC(C)c2ccccc2F)=NC1=O (stereo not shown) , result: 87.1

// viability at 28.5 h, 10 µM lookup, compound = CCn1cc(CN2CCOC(c3cccc(-c4ccc(OC)cc4)n3)C2)c(C)n1 (stereo not shown) , result: 84.4

// viability at 28.5 h, 10 µM lookup, compound = Cc1ccc2[nH]c(C3CCCCN3C(=O)c3cscn3)nc2c1 (stereo not shown) , result: 96.6

// viability at 28.5 h, 10 µM lookup, compound = Cc1ccc(-c2csc3ncnc(SCc4csc(C)n4)c23)cc1 , result: 91.7

// viability at 28.5 h, 10 µM lookup, compound = CC(NC(=O)c1cccc(-n2cnnc2)c1)c1ccc2c(c1)CCC2 (stereo not shown) , result: 91.9
